These measurements were taken from ChEMBL document CHEMBL1149237.

- Study system: UniProt P19793
- Sequence (P19793 whole entry): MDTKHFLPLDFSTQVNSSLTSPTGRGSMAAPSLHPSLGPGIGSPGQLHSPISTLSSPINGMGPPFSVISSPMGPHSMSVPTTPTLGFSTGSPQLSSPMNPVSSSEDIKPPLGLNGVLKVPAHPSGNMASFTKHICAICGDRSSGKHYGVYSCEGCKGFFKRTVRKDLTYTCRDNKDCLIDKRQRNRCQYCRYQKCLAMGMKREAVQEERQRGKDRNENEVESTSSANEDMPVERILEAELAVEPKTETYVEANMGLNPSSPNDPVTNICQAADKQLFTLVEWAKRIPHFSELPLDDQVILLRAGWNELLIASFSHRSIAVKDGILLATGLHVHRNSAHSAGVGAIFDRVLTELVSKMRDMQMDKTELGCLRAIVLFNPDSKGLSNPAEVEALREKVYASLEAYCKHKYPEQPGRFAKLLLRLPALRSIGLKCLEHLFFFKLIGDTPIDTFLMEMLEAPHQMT
- Procedure details: Ability to displace [3H]9-cis-RA from Retinoid X receptor alpha in CV-1 cells
# label = bin(measured Ki), where bins are low-valued = under 3 nM, mid-valued = from 3 nM up to 400 nM, high-valued = 400 nM and over

## Task Bin this entry: CCCCOc1c(-c2cn(C)c3ccc(/C(C)=C/C(=O)O)cc23)cc(C(C)C)cc1C(C)C
## Result high-valued

## Task Bin this entry: C/C(=C/C=C/C(C)=C/C(=O)O)c1cc(C(C)(C)C)cc(C(C)(C)C)c1OCCCF
## Result low-valued

## Task Bin this entry: CCOc1c(-c2cnc3ccc(/C(C)=C/C(=O)O)cn23)cc(C(C)C)cc1C(C)C
## Result high-valued

## Task Bin this entry: C/C(=C\C(=O)O)c1ccc2[nH]cc(-c3cc(C(C)(C)C)cc(C(C)(C)C)c3OCC(F)F)c2c1
## Result low-valued

## Task Bin this entry: C/C(=C\C(=O)O)c1ccc2scc(-c3cc(C(C)C)cc(C(C)C)c3O)c2c1
## Result mid-valued

## Task Bin this entry: CCCOc1c(-c2c[nH]c3ccc(/C(C)=C/C(=O)O)cc23)cc(C(C)(C)C)cc1C(C)(C)C
## Result low-valued

## Task Bin this entry: CCOc1c(-c2n[nH]c3ccc(/C(C)=C/C(=O)O)cc23)cc(C(C)C)cc1C(C)C
## Result mid-valued

## Task Bin this entry: COc1c(-c2csc3ccc(/C(C)=C/C(=O)O)cc23)cc(C(C)C)cc1C(C)C
## Result mid-valued

## Task Bin this entry: CCCCOc1c(-c2c[nH]c3ccc(/C(C)=C/C(=O)O)cc23)cc(C(C)(C)C)cc1C(C)(C)C
## Result mid-valued

## Task Bin this entry: CCCCOc1c(-c2c[nH]c3ccc(/C(C)=C/C(=O)O)cc23)cc(C(C)C)cc1C(C)C
## Result mid-valued

## Task Bin this entry: CCOc1c(-c2noc3ccc(/C(C)=C/C(=O)O)cc23)cc(C(C)C)cc1C(C)C
## Result high-valued

* * *

The compounds listed here are annotated with their Ratio.
- Study system: Peroxisome proliferator-activated receptor gamma (Homo sapiens)
- Sequence (whole entry): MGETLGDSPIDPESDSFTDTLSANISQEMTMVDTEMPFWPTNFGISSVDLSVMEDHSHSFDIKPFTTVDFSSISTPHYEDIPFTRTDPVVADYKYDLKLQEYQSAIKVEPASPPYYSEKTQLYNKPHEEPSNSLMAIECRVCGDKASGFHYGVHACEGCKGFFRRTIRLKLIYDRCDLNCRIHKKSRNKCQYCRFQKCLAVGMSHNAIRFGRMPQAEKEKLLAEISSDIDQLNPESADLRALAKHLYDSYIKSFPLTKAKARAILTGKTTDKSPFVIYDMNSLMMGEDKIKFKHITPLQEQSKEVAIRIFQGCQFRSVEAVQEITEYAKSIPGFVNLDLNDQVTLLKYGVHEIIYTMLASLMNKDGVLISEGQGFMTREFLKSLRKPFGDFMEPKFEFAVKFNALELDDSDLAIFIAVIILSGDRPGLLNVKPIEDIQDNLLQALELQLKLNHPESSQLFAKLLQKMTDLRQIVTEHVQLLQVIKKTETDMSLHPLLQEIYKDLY
- Procedure details: Ratio between effective concentrations (Agonist) in PPAR gamma
- Format: functional
- Condition: Cercopithecidae
API doc: respond with a numeric literal and nothing else, no unit.

Smiles string: CCOc1c(-c2cnc3ccc(/C(C)=C/C(=O)O)cn23)cc(C(C)C)cc1C(C)C
Ratio: 425

## Task Determine its reported Ratio: CCCCOc1c(-c2cn(C)c3ccc(/C(C)=C/C(=O)O)cc23)cc(C(C)C)cc1C(C)C
## Result 612

## Task Determine its reported Ratio: C/C(=C\C(=O)O)c1ccc2scc(-c3cc(C(C)C)cc(C(C)C)c3OCCCF)c2c1
## Result 1480

## Task Determine its reported Ratio: CCOc1c(-c2[nH]nc3ccc(/C(C)=C/C(=O)O)cc23)cc(C(C)C)cc1C(C)C
## Result 118

## Task Determine its reported Ratio: C/C(=C\C(=O)O)c1ccc2scc(-c3cc(C(C)C)cc(C(C)C)c3O)c2c1
## Result 384

## Task Determine its reported Ratio: CCCCOc1c(-c2c[nH]c3ccc(/C(C)=C/C(=O)O)cc23)cc(C(C)(C)C)cc1C(C)(C)C
## Result 8.9

## Task Determine its reported Ratio: COc1c(-c2csc3ccc(/C(C)=C/C(=O)O)cc23)cc(C(C)C)cc1C(C)C
## Result 224

## Task Determine its reported Ratio: CCOc1c(-c2csc3cnc(/C(C)=C/C(=O)O)cc23)cc(C(C)C)cc1C(C)C
## Result 347

## Task Determine its reported Ratio: CCCCOc1c(-c2cccc3[nH]c(/C(C)=C/C(=O)O)cc23)cc(C(C)C)cc1C(C)C
## Result 893

## Task Determine its reported Ratio: C/C(=C/C=C/C(C)=C/C(=O)O)c1cc(C(C)(C)C)cc(C(C)(C)C)c1OCCCF
## Result 3.1

## Task Determine its reported Ratio: CCCCOc1c(-c2c[nH]c3ccc(/C(C)=C/C(=O)O)cc23)cc(C(C)C)cc1C(C)C
## Result 15

## Task Determine its reported Ratio: CCOc1c(-c2noc3ccc(/C(C)=C/C(=O)O)cc23)cc(C(C)C)cc1C(C)C
## Result 306

## Task Determine its reported Ratio: CCCCOc1c(\C(C)=C/C=C/C(C)=C/C(=O)O)cc(C(C)C)cc1C(C)C
## Result 1890

## Task Determine its reported Ratio: CCCOc1c(-c2c[nH]c3ccc(/C(C)=C/C(=O)O)cc23)cc(C(C)(C)C)cc1C(C)(C)C
## Result 7

## Task Determine its reported Ratio: C/C(=C\C(=O)O)c1ccc2[nH]cc(-c3cc(C(C)(C)C)cc(C(C)(C)C)c3OCC(F)F)c2c1
## Result 21.9

## Task Determine its reported Ratio: CCOc1c(\C(C)=C/C=C/C(C)=C/C(=O)O)cc(C(C)C)cc1C(C)C
## Result 8
